Origin of measurements: paper PMC5698418

Here the recorded Fold-change — Normalized to DMSO control (BDNF) is given for each entry.
Test system: BDNF-induced nuclear Arc expression in primary cortical neurons
Test: Chemogenomic screen: high-content image-based assay of BDNF-induced nuclear Arc expression (96-well)
Type: cell-based, mouse
Conditions: nuclear Arc-positive cells relative to DMSO + BDNF control; negative values = decrease
Where a name gives a salt, the structure may show the parent alone.
observation.type: Fold-change — Normalized to DMSO control (BDNF) (fold)

molecule | endpoint.result
COc1ccc2c(c1)[C@]13CCCC[C@@H]1[C@H](C2)N(C)CC3 | 1.0
CCc1c(C)[nH]c2c1C(=O)C(CN1CCOCC1)CC2 (stereo not drawn) | 1.9
CCOc1cc(CC(=O)N[C@@H](CC(C)C)c2ccccc2N2CCCCC2)ccc1C(=O)O [Repaglinide] | 1.0
CCN(CC)CCOC(=O)c1ccc(N)cc1 [Procaine hydrochloride] | 1.9
Cn1c(=O)c2[nH]cnc2n(C)c1=O | 1.2
CC(C)CC(N(C)C)C1(c2ccc(Cl)cc2)CCC1 (stereo not drawn) | 1.1
OCCOCCN1CCN(C(c2ccccc2)c2ccc(Cl)cc2)CC1 (stereo not drawn) [Hydroxyzine dihydrochloride] | 1.4
CN1CC(=O)NC1=O | 1.6
CC(=O)[C@H]1CC[C@H]2[C@@H]3CC[C@H]4C[C@](C)(O)CC[C@]4(C)[C@H]3CC[C@]12C | 1.2
OCCOCCN1CCN(C2=Nc3ccccc3Sc3ccccc32)CC1 [Quetiapine fumarate] | 1.3
COc1cc2c(NC3CCN(C)CC3)nc(N3CCCN(C)CC3)nc2cc1OCCCN(C)C | 2.1
CC(=O)[C@H]1CC[C@H]2[C@@H]3CC=C4C[C@@H](O)CC[C@]4(C)[C@H]3CC[C@]12C | 1.2
N=C(N)NC(=O)Cc1c(Cl)cccc1Cl [Guanfacine hydrochloride] | 1.1
Cl.O=C(O)C1=CCCN(CCON=C(c2ccccc2)c2ccccc2)C1 [NNC 711 hydrochloride] | 1.1
O=C(O[C@@H]1Cc2c(O)cc(O)cc2O[C@@H]1c1cc(O)c(O)c(O)c1)c1cc(O)c(O)c(O)c1 [(-)-Epigallocatechin gallate] | 1.9
CN(C)CCOC(=O)COc1ccc(Cl)cc1.Cl [Meclofenoxate hydrochloride] | 1.4
NC(=O)c1cn(Cc2c(F)cccc2F)nn1 [Rufinamide] | 1.0
NC12CC3CC(CC(C3)C1)C2 | 1.7
